test: Kinetic assay of purified DAOCS with penicillin N as main substrate
Format: biochemical
conditions-used: for penicillin N; 0.5 μg purified DAOCS, 30° C., 10 minutes; triplicate, Hanes-Woolf Plot
property: Km

molecule: YS8: mutated penicillin expandase (DAOCS) with substitution I305L (protein, UniProt P18548 1-311, looked up, variant I305L) Deacetoxycephalosporin C …: MDTTVPTFSLAELQQGLHQDEFRRCLRDKGLFYLTDCGLTDTELKSAKDLVIDFFEHGSEAEKRAVTSPVPTMRRGFTGLESESTAQITNTGSYSDYSMCYSMGTADNLFPSGDFERIWTQYFDRQYTASRAVAREVLRATGTEPDGGVEAFLDCEPLLRFRYFPQVPEHRSAEEQPLRMAPHYDLSMVTLIQQTPCANGFVSLQAEVGGAFTDLPYRPDAVLVFCGAIATLVTGGQVKAPRHHVAAPRRDQIAGSSRTSSVFFLRPNADFTFSVPLARECGFDVSLDGETATFQDWIGGNYVNLRRTSKA
assay-value: 6 µM
